System: CCRF-CEM leukemia
Assay: NCI-60 one-dose screen, 48 h (100 = growth as untreated, 0 = no growth, -100 = all killed)
Conditions: 10 µM unless noted
About 83,000 compounds went through this panel and 20% of them were active in at least one assay; those are over-represented in the sample as a whole. Calls of active or inactive are those of the source. The calls were made as follows: active = growth percent below 10; inactive = the rest.
Field: growth. Provide a value for each of the molecules that follow.

## Input Write down the reported growth of `Cc1ccc(-c2cc(-c3ccc(C)cc3)nc(NCCNc3ccnc4cc(Cl)ccc34)n2)cc1` , test system: CCRF-CEM leukemia.
## Output 2.06% (active)

## Input Write down the reported growth of `C[C@@H](NC(=O)[C@@H](CC(=O)N1CCC(N2CCCCC2)CC1)N1C(=O)[C@@H](N2C(=O)OC[C@@H]2c2ccccc2)[C@H]1/C=C/c1cccc(Cl)c1)c1ccccc1` , test system: CCRF-CEM leukemia.
## Output 50.1% (inactive)

## Input Write down the reported growth of `Cn1cc(-c2nnc(-c3cn(C)c4ncccc34)s2)c2ccccc21` , test system: CCRF-CEM leukemia.
## Output 38.3% (inactive)

## Input Write down the reported growth of `COc1c(B(O)O)cccc1-c1nc2ccc3[nH]ncc3c2c2c1CCC2` , test system: CCRF-CEM leukemia.
## Output 64.2% (inactive)

## Input Write down the reported growth of `CC(C)=CC/C=C(/C)[C@H]1CC[C@]2(C)[C@@H]1CC[C@@H]1[C@@]3(C)CC/C(=N/O)C(C)(C)[C@@H]3CC[C@]12C` , test system: CCRF-CEM leukemia.
## Output 38.4% [100 µM] (inactive)

## Input Write down the reported growth of `CCCCNC(=O)NS(=O)(=O)Cc1ccccc1` , test system: CCRF-CEM leukemia.
## Output 93.1% (inactive)

## Input Write down the reported growth of `ClC1=C(Cl)C(Cl)=C(Cl)C1=Cc1ccccc1` , test system: CCRF-CEM leukemia.
## Output 8.52% (active)

## Input Write down the reported growth of `CN(C)C(=S)Sc1ccc([N+](=O)[O-])cc1[N+](=O)[O-]` , test system: CCRF-CEM leukemia.
## Output 4.55% (active)

## Input Write down the reported growth of CC1Cc2c(Cl)ncnc2N(C)c2ccc(Cl)cc21 (stereo not drawn) , test system: CCRF-CEM leukemia.
## Output 19.4% (inactive)

## Input Write down the reported growth of `CCN(CC)c1cc(N)c(Cc2c(N)cc(N(CC)CC)cc2Cl)c(Cl)c1` , test system: CCRF-CEM leukemia.
## Output 51.5% (inactive)

## Input Write down the reported growth of `Clc1ccc2nc(-c3ccc(-c4ccc(/C=N/NC5=NCCN5)cc4)s3)cn2c1` , test system: CCRF-CEM leukemia.
## Output 76.3% (inactive)

## Input Write down the reported growth of `C=C(C)[C@@H]1CC[C@]2(C(=O)NCCCN)CC[C@]3(C)[C@H](CC[C@@H]4[C@@]5(C)CC[C@H](O)C(C)(C)[C@@H]5CC[C@]43C)[C@@H]12` , test system: CCRF-CEM leukemia.
## Output 1.39% [100 µM] (active)

## Input Write down the reported growth of `O=C1COCCN1c1ccc(Nc2nc(Cl)nc(N3CCOCC3)n2)cc1` , test system: CCRF-CEM leukemia.
## Output 97% (inactive)

## Input Write down the reported growth of COc1ccc2nc3c(cc2c1)C(=O)CC(c1ccccc1)C3 (stereo not drawn) , test system: CCRF-CEM leukemia.
## Output 10.7% (inactive)

## Input Write down the reported growth of `CNC(=O)c1cc(Oc2ccc3nc(NC(=O)c4ccc5ncccc5c4)sc3c2)ccn1` , test system: CCRF-CEM leukemia.
## Output 91% (inactive)

## Input Write down the reported growth of `Cc1ccc(NC(=S)/N=c2/n(-c3ccccc3)nc3n2CCN3C2=NCCN2)cc1` , test system: CCRF-CEM leukemia.
## Output 102% (inactive)

## Input Write down the reported growth of `COc1ccc(-c2cc(-c3ccccc3)nc(SCCCCCC(=O)NO)n2)cc1` , test system: CCRF-CEM leukemia.
## Output 13.8% (inactive)

## Input Write down the reported growth of `C=C(C)[C@@H]1CC[C@]2(COC(=O)c3ccccc3C(=O)O)CC[C@]3(C)[C@H](CC[C@@H]4[C@@]5(C)CC[C@H](OC(=O)c6ccccc6C(=O)O)C(C)(C)[C@@H]5CC[C@]43C)[C@@H]12` , test system: CCRF-CEM leukemia.
## Output 46.4% [100 µM] (inactive)

====

Test system: SK-MEL-5 melanoma
Experiment: NCI-60 one-dose screen, 48 h
Conditions: 10 µM unless noted
The panel holds about 83,000 compounds, 20% with a hit somewhere; the sample as a whole holds those more often. Activity calls are given as the source filed them. The calls were made as follows: active = growth percent below 10; inactive = the rest.
Pick from 1.0 for active, 0.0 for inactive when you respond.

## Input Which outcome was assigned to `CC(C)=CCC[C@](C)(O)[C@H]1CC[C@]2(C)[C@@H]1CC[C@@H]1[C@@]3(C)CC/C(=N/O)C(C)(C)[C@@H]3CC[C@]12C` in this test?
## Output 1.0

## Input Which outcome was assigned to `c1ccc(-c2n[nH]c(-c3ccccn3)n2)nc1` in this test?
## Output 0.0

## Input Which outcome was assigned to `N#C/C(C(=O)c1ccccc1)=C1/C(=O)Nc2ccc(F)cc21` in this test?
## Output 0.0

## Input Which outcome was assigned to `CCOC(=O)n1cc(C2=C(c3ccc(OC)c(OC)c3)COC2=O)c2ccccc21` in this test?
## Output 1.0

## Input Which outcome was assigned to `c1cc2ccc3cc2cc1CNCCN1CCNCc2ccc4ccc(cc4c2)CNCCN(CCNC3)CCNCc2ccc3ccc(cc3c2)CNCC1` in this test?
## Output 0.0

## Input Which outcome was assigned to `CSc1nc2c(c(=O)n1C)C1(C(=O)N(Cc3ccccc3)c3ccccc31)c1c(nc(SC)n(C)c1=O)N2` in this test?
## Output 0.0

## Input Which outcome was assigned to `C[C@H]1[C@H](C)CC[C@]2(C(=O)N3CCN(C)CC3)CC[C@]3(C)C(=CC[C@@H]4[C@@]5(C)C/C(=C/c6ccco6)C(=O)C(C)(C)[C@@H]5CC[C@]43C)[C@H]12` in this test?
## Output 1.0

## Input Which outcome was assigned to `COc1ncc(-c2ccc3nc(N)n(-c4ccccc4C(F)(F)F)c(=O)c3c2)cc1S(=O)(=O)Nc1ccc(F)cc1F` in this test?
## Output 1.0

====

Tested on: CCRF-CEM leukemia
Assay: NCI-60 one-dose screen, 48 h (100 = growth as untreated, 0 = no growth, -100 = all killed)
Conditions: 10 µM unless noted
Compounds without any hit were thinned out: in the full panel of roughly 83,000, 20% have a hit.
Class (required): determined from growth; valid ranges are lower band (below 60%), central band (60% to below 90%), upper band (90% or more)

## Input Which class holds `Cn1cc(-c2nnc(-c3cn(C)c4ncccc34)o2)c2ccccc21` ?
## Output lower band

## Input Which class holds `Cc1ccc(S(=O)(=O)Nc2ccccc2)cc1N` ?
## Output upper band

## Input Which class holds `O=C1Nc2ccccc2/C1=C/C(=O)c1ccc(N2CCCC2)cc1` ?
## Output lower band

## Input Which class holds `Cc1ccc(Oc2c(/C=N/NC(=O)Cn3c(=O)sc4ccccc43)c(C)nn2-c2ccccc2)cc1` ?
## Output lower band

## Input Which class holds `CC(C)OC(=O)Nc1cc(F)c(F)cc1F` ?
## Output upper band

## Input Which class holds `NC1=NC(=O)NC1(c1ccccc1)c1ccccc1` ?
## Output central band

## Input Which class holds `CC(=O)Nc1ccc2nc3ccc(NC(C)=O)cc3[n+](-c3ccccc3)c2c1` ?
## Output central band

## Input Which class holds `Brc1ccc(-c2nnc3c4[nH]ccc4ncn23)cc1` ?
## Output upper band

## Input Which class holds `CCOc1ccc(/C=C(\C#N)c2cc3ccccc3[nH]2)cc1` ?
## Output central band

====

Tested on: IGROV1 ovarian
Experiment: NCI-60 one-dose screen, 48 h (100 = growth as untreated, 0 = no growth, -100 = all killed)
Details: 10 µM unless noted
This is part of a sample that, as a whole, favours compounds with a hit. Of some 83,000 tested, about 20% had one in any assay.
Field: growth. Provide a value for each of the compounds that follow.
Number only, in %; omit the unit.

## Input Which growth reading was recorded for the compound COc1ccccc1S(=O)Nc1ccccc1 (stereo not given) ?
## Output 107

## Input Which growth reading was recorded for the compound `COc1c(B(O)O)cccc1-c1nc2ccc3[nH]ncc3c2c2c1CCC2` ?
## Output 42

## Input Which growth reading was recorded for the compound `CCCOc1ccc(-c2nc(-c3ccc(N)cc3)cs2)cc1` ?
## Output 94.8

## Input Which growth reading was recorded for the compound `COc1cc(Cl)cc(-c2nn(C(=O)NS(=O)(=O)c3ccccc3)cc2-c2ccncc2)c1` ?
## Output 92.1

## Input Which growth reading was recorded for the compound `O=C(NCCCNC(=O)OCc1ccc2cccc(O)c2n1)OCc1ccc2cccc(O)c2n1` ?
## Output 24.1

## Input Which growth reading was recorded for the compound `CC1=CC[C@@H]2C(C)(C)[C@@H](O)CC[C@@]2(C)[C@@H]1COc1ccc2ccc(=O)oc2c1` ?
## Output 57.9

## Input Which growth reading was recorded for the compound `O=S(=O)(c1ccc(N/N=C\c2ccccc2Cl)cc1)c1ccc(N/N=C/c2ccccc2Cl)cc1` ?
## Output 73.8

## Input Which growth reading was recorded for the compound `c1ccc(-c2nc(N3CCCNCC3)c3nc(-c4ccccc4)oc3n2)cc1` ?
## Output -56

## Input Which growth reading was recorded for the compound `COc1ccc(/C=C(/C(=O)c2ccc(Cl)cc2)C(=O)C(F)(F)F)cc1` ?
## Output 96

## Input Which growth reading was recorded for the compound `Cn1cc(-c2noc(-c3cn(C)c4ncc(F)cc34)n2)c2ccccc21` ?
## Output 45
